- tgt: human MASP-2 (endogenous, in normal human serum) (human, UniProt O00187 16-686)
- Sequence (O00187 16-686 limits assumed): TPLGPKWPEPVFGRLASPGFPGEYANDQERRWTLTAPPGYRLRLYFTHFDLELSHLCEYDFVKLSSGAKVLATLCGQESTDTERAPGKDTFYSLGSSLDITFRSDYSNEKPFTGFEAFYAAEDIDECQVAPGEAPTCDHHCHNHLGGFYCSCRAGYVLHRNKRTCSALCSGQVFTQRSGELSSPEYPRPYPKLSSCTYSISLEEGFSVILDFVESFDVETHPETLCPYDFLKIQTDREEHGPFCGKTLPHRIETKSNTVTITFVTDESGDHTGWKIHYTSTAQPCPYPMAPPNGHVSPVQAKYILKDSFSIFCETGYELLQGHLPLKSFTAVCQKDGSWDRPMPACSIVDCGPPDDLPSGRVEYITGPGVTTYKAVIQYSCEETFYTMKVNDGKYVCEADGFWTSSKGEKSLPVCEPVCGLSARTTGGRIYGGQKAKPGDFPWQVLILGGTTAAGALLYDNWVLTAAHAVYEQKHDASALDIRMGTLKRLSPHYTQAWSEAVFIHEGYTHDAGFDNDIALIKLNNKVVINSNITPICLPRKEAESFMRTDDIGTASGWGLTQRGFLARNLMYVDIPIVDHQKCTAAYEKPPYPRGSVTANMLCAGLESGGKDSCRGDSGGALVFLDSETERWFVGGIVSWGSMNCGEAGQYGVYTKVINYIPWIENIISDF
- procedure summary: cell-based or functional assay
endpoint label: Human C3b deposition, IC50 (nM)
Report the figure in nM without appending any unit label.

Some binders with known Human C3b deposition, IC50 results, for comparison:
binder="OMS850_VH_P53/A (antibody, IgG4, V domains shown) VH: QVQLQQPGAELVRPGSSVRLSCKASGYTFTNYWMHWLKQRPIQGLEWIGDIDASDSETHYIEKFKDKATLTIDKSSSTAYMHLSSLTSEDSAIYYCARGDITTTLRYFDVWGTGTTVTVSS VL: QIVLTQSPVIMSASPGEKVTMTCSASSSVRYMYWYQQKPGSSPRLLIYDTSNLASGVPVRFSGSGSGTSNSLTISRMEAEDAATYYCQQWSSYPLTFGAGTKLELKR" endpoint_label="Human C3b deposition, IC50" reported_measurement=0.07
binder="OMS850_VH_P53/N (antibody, IgG4, V domains shown) VH: QVQLQQPGAELVRPGSSVRLSCKASGYTFTNYWMHWLKQRPIQGLEWIGDIDNSDSETHYIEKFKDKATLTIDKSSSTAYMHLSSLTSEDSAIYYCARGDITTTLRYFDVWGTGTTVTVSS VL: QIVLTQSPVIMSASPGEKVTMTCSASSSVRYMYWYQQKPGSSPRLLIYDTSNLASGVPVRFSGSGSGTSNSLTISRMEAEDAATYYCQQWSSYPLTFGAGTKLELKR" endpoint_label="Human C3b deposition, IC50" reported_measurement=0.53
binder="mAb OMS850 (mouse-human chimeric, mouse parental variable regions) (antibody, human IgG4 S228P, kappa, V domains shown, also called OMS850 parent) VH: QVQLQQPGAELVRPGSSVRLSCKASGYTFTNYWMHWLKQRPIQGLEWIGDIDPSDSETHYIEKFKDKATLTIDKSSSTAYMHLSSLTSEDSAIYYCARGDITTTLRYFDVWGTGTTVTVSS VL: QIVLTQSPVIMSASPGEKVTMTCSASSSVRYMYWYQQKPGSSPRLLIYDTSNLASGVPVRFSGSGSGTSNSLTISRMEAEDAATYYCQQWSSYPLTFGAGTKLELKR" endpoint_label="Human C3b deposition, IC50" reported_measurement=0.09

# ---- query binder ----
Query: Sample OMS850_VH_P53/D (antibody, IgG4, V domains shown) VH: QVQLQQPGAELVRPGSSVRLSCKASGYTFTNYWMHWLKQRPIQGLEWIGDIDDSDSETHYIEKFKDKATLTIDKSSSTAYMHLSSLTSEDSAIYYCARGDITTTLRYFDVWGTGTTVTVSS VL: QIVLTQSPVIMSASPGEKVTMTCSASSSVRYMYWYQQKPGSSPRLLIYDTSNLASGVPVRFSGSGSGTSNSLTISRMEAEDAATYYCQQWSSYPLTFGAGTKLELKR — what was its Human C3b deposition, IC50?
Reply: 0.16
